- STUDY_SYSTEM: T1, A1 protein (mouse, residues 1-152, P104K C113S, used as wild type) (mouse)
- T1 sequence (Q07440 1-152 with P104K C113S, looked up): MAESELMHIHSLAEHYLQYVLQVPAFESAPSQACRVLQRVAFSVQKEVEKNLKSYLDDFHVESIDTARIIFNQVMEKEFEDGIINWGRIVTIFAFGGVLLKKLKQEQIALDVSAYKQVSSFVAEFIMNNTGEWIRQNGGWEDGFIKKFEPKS
- ASSAY_NOTES: stopped-flow fluorescence kinetics; association; TAMRA-labelled peptide with folded partner at least 10-fold higher (pseudo-first-order); kon from the gradient of kobs versus partner concentration; 25 °C; 50 mM sodium phosphate, 0.05% (v/v) Tween 20, pH 7.0
Where no end group is shown, it is not given here. The star is where a group is joined. TAMRA = 5-carboxytetramethylrhodamine, CN(C)c1ccc2c(-c3ccc(C(=O)*)cc3C(=O)[O-])c3ccc(=[N+](C)C)cc-3oc2c1
OBSERVABLE: kon (M⁻¹ s⁻¹)
Please give a number only; it is taken to be in M⁻¹ s⁻¹.

- BINDER: "{TAMRA}-SESQEEIIHNIARHLAQIGDEMDHNAQPTLVRQLA (peptide, UniProt P70444 76-110, looked up, BID, mouse, residues 76-110, UniProt P70444; source: synthetic peptide (Biomatik)) [BID I101A peptide, TAMRA-labelled]"
  kon [M⁻¹ s⁻¹]: "8.6e+06"
- BINDER: "{TAMRA}-SESQEEIAHNIARHLAQIGDEMDHNIQPTLVRQLA (peptide, UniProt P70444 76-110, looked up, BID, mouse, residues 76-110, UniProt P70444; source: synthetic peptide (Biomatik)) [BID I83A peptide, TAMRA-labelled]"
  kon [M⁻¹ s⁻¹]: "7e+06"
- BINDER: "{TAMRA}-SESQEAIIHNIARHLAQIGDEMDHNIQPTLVRQLA (peptide, UniProt P70444 76-110, looked up, BID, mouse, residues 76-110, UniProt P70444; source: synthetic peptide (Biomatik)) [BID E81A peptide, TAMRA-labelled]"
  kon [M⁻¹ s⁻¹]: "1.07e+07"

Let us examine a further case.
Enquiry: For the binder shown here, {TAMRA}-SESQEGIIHNIARHLAQIGDEMDHNIQPTLVRQLA (peptide, UniProt P70444 76-110, looked up, BID, mouse, residues 76-110, UniProt P70444; source: synthetic peptide (Biomatik)) [BID E81G peptide, TAMRA-labelled] , give the reported kon.
Return: 9.6e+06

Data credit: paper PMC6016464
